- ASSAY TARGET: T1, 4H2760-AA
- T1 chain: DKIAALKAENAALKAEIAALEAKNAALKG
- PROCEDURE DETAILS: two-hybrid library CCmax;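 further: natural log of median RNA to DNA barcode read ratio; higher means stronger binding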
- SETTINGS: mean of both orientations
VALUE KIND: interaction score

Take a look at these entries with their results.
BINDER	VALUE KIND	READING
DENAALKAKIAALKAENAALEAKIAALKG [4H1878-AA]	interaction score	1.48
DEIAALEAENAALKAKIAALKAENAALEG [4H235-AA]	interaction score	2.27
DENAALEAKNAALEAKIAALKAEIAALEG [4H1449-AA]	interaction score	-1.16
DENAALEAKIAALKAKIAALEAKNAALKG [4H1384-AA]	interaction score	-1.74
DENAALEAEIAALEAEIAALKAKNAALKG [4H1040-AA]	interaction score	-1.46

I: DENAALEAENAALKAKIAALKAKIAALKG [4H1262-AA]
II: DENAALKAEIAALEAKNAALKAEIAALEG [4H1593-AA]
Sort I and II by interaction score descending and give the first. Your answer should be the label attached to the chosen record.
I

1: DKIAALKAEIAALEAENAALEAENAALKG [4H2580-AA]
2: DKIAALKAEIAALEAKIAALKAENAALKG [4H2604-AA]
1 or 2 : whose interaction score is greater? // caller expects the label of the chosen entry
2
(2: -1.02, 1: -1.47)

1: DEIAALEAENAALKAKNAALKAEIAALEG [4H249-AA]
2: DENAALEAKIAALKAEIAALEAKIAALEG [4H1349-AA]
Exercise: compare 1 and 2 ; which one has the greater interaction score? Answer with the label corresponding to your selection.
1
(1: 1.68, 2: -0.562)

a: DKIAALKAEIAALEAKNAALKAKIAALEG [4H2621-AA]
b: DEIAALEAENAALEAEIAALEAKIAALEG [4H133-AA]
Return label of the item with the larger interaction score. Candidates: a , b . Pick one; state its label.
b
(b: 1.33, a: -0.432)

meta.source: paper PMC10397247
